# Test system: Escherichia coli TOP10
# experiment.description: shrunken log2 fold change of peptide-encoding DNA abundance (4.5 h post-induction vs induction); higher = less antimicrobial activity (less host growth inhibition)
# setup.conditions: time post-induction: 4.5 h; library: site-saturation at positions 5, 18, 19, 20

{"columns": ["entry.sequence", "shrunken log2 fold change"],
 "data": [
  ["RRIRWRPPRLPRPRPRPGYCPRP", -0.407],
  ["RRIRCRPPRLPRPRPRPDLMPRP", -0.424],
  ["RRIRYRPPRLPRPRPRPCWSPRP", -0.768],
  ["RRIRRRPPRLPRPRPRPMFFPRP", -0.0274],
  ["RRIRFRPPRLPRPRPRPHKWPRP", -0.073],
  ["RRIRERPPRLPRPRPRPSKEPRP", -0.0565],
  ["RRIRWRPPRLPRPRPRPCPHPRP", -0.00679],
  ["RRIRRRPPRLPRPRPRPSLGPRP", 0.261],
  ["RRIRWRPPRLPRPRPRPETDPRP", 0.773],
  ["RRIRYRPPRLPRPRPRPDIRPRP", -0.00867],
  ["RRIRWRPPRLPRPRPRPNEMPRP", -0.078],
  ["RRIRQRPPRLPRPRPRPVFVPRP", -0.0727],
  ["RRIRSRPPRLPRPRPRPGQFPRP", -0.112],
  ["RRIRVRPPRLPRPRPRPHIHPRP", -0.545],
  ["RRIRRRPPRLPRPRPRPPVVPRP", 0.26]
]}

====

# Test system: Escherichia coli TOP10;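 note: peptides expressed intracellularly from a pBAD plasmid library in pooled LB shake-flask culture, induced with 0.3% L-arabinose, DNA abundance read by NGS, three biological replicates, DESeq2 with apeglm shrinkage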
# experiment.description: shrunken log2 fold change of peptide-encoding DNA abundance (4.5 h post-induction vs induction); higher = less antimicrobial activity (less host growth inhibition)
# setup.conditions: time post-induction: 4.5 h; library: site-saturation at positions 5, 18, 19, 20
Kind request: treat -0.07 as inclusive, so shrunken log2 fold change at -0.07 or higher is Satisfied, anything lower is Not satisfied.

{"columns": ["entry.sequence", "category"],
 "data": [
  ["RRIRERPPRLPRPRPRPDKYPRP", "Not satisfied"],
  ["RRIRIRPPRLPRPRPRPTEIPRP", "Not satisfied"],
  ["RRIRDRPPRLPRPRPRPNWEPRP", "Satisfied"],
  ["RRIRGRPPRLPRPRPRPRGEPRP", "Satisfied"],
  ["RRIRGRPPRLPRPRPRPDKCPRP", "Satisfied"],
  ["RRIRTRPPRLPRPRPRPWHRPRP", "Not satisfied"],
  ["RRIRDRPPRLPRPRPRPSVGPRP", "Satisfied"],
  ["RRIRNRPPRLPRPRPRPQCKPRP", "Not satisfied"],
  ["RRIRHRPPRLPRPRPRPARAPRP", "Satisfied"],
  ["RRIRRRPPRLPRPRPRPADKPRP", "Not satisfied"],
  ["RRIRGRPPRLPRPRPRPDLCPRP", "Satisfied"],
  ["RRIRDRPPRLPRPRPRPTETPRP", "Satisfied"],
  ["RRIRCRPPRLPRPRPRPWHKPRP", "Not satisfied"],
  ["RRIRDRPPRLPRPRPRPEVMPRP", "Satisfied"],
  ["RRIRARPPRLPRPRPRPLVLPRP", "Satisfied"],
  ["RRIRQRPPRLPRPRPRPRIFPRP", "Not satisfied"],
  ["RRIRRRPPRLPRPRPRPQSTPRP", "Not satisfied"],
  ["RRIRVRPPRLPRPRPRPKINPRP", "Not satisfied"],
  ["RRIRNRPPRLPRPRPRPRKAPRP", "Satisfied"],
  ["RRIRWRPPRLPRPRPRPYYLPRP", "Not satisfied"],
  ["RRIRNRPPRLPRPRPRPNLWPRP", "Satisfied"],
  ["RRIRIRPPRLPRPRPRPEIIPRP", "Satisfied"],
  ["RRIRRRPPRLPRPRPRPRHEPRP", "Satisfied"],
  ["RRIRTRPPRLPRPRPRPWCRPRP", "Not satisfied"],
  ["RRIRKRPPRLPRPRPRPMCCPRP", "Not satisfied"],
  ["RRIRTRPPRLPRPRPRPMSFPRP", "Satisfied"],
  ["RRIRPRPPRLPRPRPRPCPRPRP", "Satisfied"],
  ["RRIRKRPPRLPRPRPRPDFGPRP", "Satisfied"],
  ["RRIRIRPPRLPRPRPRPFHPPRP", "Not satisfied"],
  ["RRIRWRPPRLPRPRPRPIPEPRP", "Satisfied"],
  ["RRIRPRPPRLPRPRPRPDFTPRP", "Not satisfied"],
  ["RRIRMRPPRLPRPRPRPHKGPRP", "Satisfied"]
]}
